Cited source for all entries: patent US9642854B2

- Tested on: H. pylori
- Protocol summary: Anti H. pylori screening by disc diffusion susceptibility assay
- Assay type: cell-based, Helicobacter pylori
- Condition set: ATCC standard strain 700392; 100 and 200 mg/disc (so in the source); 72 h
Property: Inhibition zone diameter (score)

>>> df
                                   molecule                          property   experimental_result
0  O=c1cc(-c2ccccc2)oc2cc(OCCCCN3CCCCC3)cc(O)c12 [CPP-3]  Inhibition zone diameter (score)  ++ (20-30 mm as ^++)
1  O=c1cc(-c2ccccc2)oc2cc(OCCCCCCN3CCCCC3)cc(O)c12 [CPP-1]  Inhibition zone diameter (score)  ++ (20-30 mm as ^++)

====

- Tested on: H. pylori
- Protocol summary: Anti H. pylori spectrum (MIC) by agar dilution method
- Type: cell-based, Helicobacter pylori
- Condition set: Helicobacter pylori, clinical strain HP004, read-out: MIC
Property: MIC (µg/mL)
Kindly answer with a numeric value in µg/mL, unit omitted.

Molecule	Endpoint unit	MIC
O=c1cc(-c2ccccc2)oc2cc(OCCCCN3CCOCC3)cc(O)c12	µg/mL	100
CC[C@H]1OC(=O)[C@H](C)[C@@H](O[C@H]2C[C@@](C)(OC)[C@@H](O)[C@H](C)O2)[C@H](C)[C@@H](O[C@@H]2O[C@H](C)C[C@H](N(C)C)[C@H]2O)[C@](C)(OC)C[C@@H](C)C(=O)[C@H](C)[C@@H](O)[C@]1(C)O [Clarithromycin, reference compound]	µg/mL	0.04
CN(C)CCCOc1cc(O)c2c(=O)cc(-c3ccccc3)oc2c1	µg/mL	12.5

// Cc1ncc([N+](=O)[O-])n1CCO [Metronidazole, reference compound] : MIC value = 100

====

- Tested on: H. pylori
- Protocol summary: Anti H. pylori spectrum (MIC) by agar dilution method
- Assay type: cell-based, Helicobacter pylori
- Condition set: Helicobacter pylori, clinical strain HP001, read-out: MIC
- Method: MIC was determined using agar dilution assay following the CLSI® guidelines. Six clinical isolates and four standard strains were used for this study. Five microlitre of freshly grown 3-day old culture (˜1×10^8 CFU/mL) was streaked in plates containing 2-fold serial dilution of the compounds ranging […], and incubated under microaerophilic condition at 37° C. After 72 h, the plates were inspected visually for absence of growth to assess the MIC values. […]
Property: MIC
State the result as a value with its unit after it.

// solved cases for MIC follow
Compound	Experimental result
O=c1cc(-c2ccccc2)oc2cc(OCCCCCCN3CCCCC3)cc(O)c12 [CPP-1]	6.25 µg/mL
CC[C@H]1OC(=O)[C@H](C)[C@@H](O[C@H]2C[C@@](C)(OC)[C@@H](O)[C@H](C)O2)[C@H](C)[C@@H](O[C@@H]2O[C@H](C)C[C@H](N(C)C)[C@H]2O)[C@](C)(OC)C[C@@H](C)C(=O)[C@H](C)[C@@H](O)[C@]1(C)O [Clarithromycin, reference compound]	0.016 µg/mL
O=c1cc(-c2ccccc2)oc2cc(OCCCN3CCCCC3)cc(O)c12 [CPP-2]	25 µg/mL
CN(C)CCCOc1cc(O)c2c(=O)cc(-c3ccccc3)oc2c1 [CHN-2]	25 µg/mL
CN(C)CCCCOc1cc(O)c2c(=O)cc(-c3ccccc3)oc2c1 [CHN-3]	25 µg/mL
CC1(C)S[C@@H]2[C@H](NC(=O)[C@H](N)c3ccc(O)cc3)C(=O)N2[C@H]1C(=O)O [Amoxicillin, reference compound]	0.032 µg/mL
O=c1cc(-c2ccccc2)oc2cc(OCCCCN3CCOCC3)cc(O)c12 [CHM-3]	50 µg/mL
CN1CCN(CCCCOc2cc(O)c3c(=O)cc(-c4ccccc4)oc3c2)CC1 [NMC-3]	25 µg/mL
CN1CCN(CCCOc2cc(O)c3c(=O)cc(-c4ccccc4)oc3c2)CC1 [NMC-2]	12.5 µg/mL

Looking up O=c1cc(-c2ccccc2)oc2cc(OCCCCCCN3CCOCC3)cc(O)c12 [CHM-1] , I found its MIC recorded as 25 µg/mL

====

MIC values, listed per item
- Tested on: H. pylori
- Protocol summary: Anti H. pylori spectrum (MIC) by agar dilution method
- Assay type: cell-based, Helicobacter pylori
- Condition set: Helicobacter pylori, clinical strain HP004, read-out: MIC

>>> print(df.to_string())
                                smiles_code  experimental_result
0  O=c1cc(-c2ccccc2)oc2cc(OCCCCCCN3CCCCC3)cc(O)c12         < 3.12 µg/mL

Record `O=c1cc(-c2ccccc2)oc2cc(OCCCCN3CCCCC3)cc(O)c12` ; system H. pylori; MIC = < 12.5 µg/mL

Per the reported H. pylori data, `CN1CCN(CCCCOc2cc(O)c3c(=O)cc(-c4ccccc4)oc3c2)CC1` has MIC of < 12.5 µg/mL

Bench note, H. pylori: entry `CN1CCN(CCCCCCOc2cc(O)c3c(=O)cc(-c4ccccc4)oc3c2)CC1` , its MIC = < 6.25 µg/mL

Readout MIC for `CN(C)CCCCOc1cc(O)c2c(=O)cc(-c3ccccc3)oc2c1` , test system H. pylori, was < 12.5 µg/mL
